molecular target: T1, human PD-L1 on cells (PHA-activated human T cells); PD-L1-transfected CHO-S cells; A375 melanoma cells; … (human, UniProt Q9NZQ7 19-290); experiment: flow cytometry on NCI-H292 human NSCLC cells, biotin-labeled anti-human IgG Fcγ and streptavidin-PE, MFI
T1 construct: whole, on cells; also called PD-L1 expressing T cells; PD-L1 expressing CHO-S cells
T1 sequence (Q9NZQ7 19-290): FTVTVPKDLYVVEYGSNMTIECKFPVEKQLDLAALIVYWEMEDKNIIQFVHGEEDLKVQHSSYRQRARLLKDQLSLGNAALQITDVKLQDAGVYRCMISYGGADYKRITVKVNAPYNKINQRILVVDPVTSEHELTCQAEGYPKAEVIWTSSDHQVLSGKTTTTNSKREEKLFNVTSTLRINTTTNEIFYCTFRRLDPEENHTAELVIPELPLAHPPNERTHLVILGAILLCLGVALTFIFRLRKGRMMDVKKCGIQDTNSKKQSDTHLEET
Measured EC50 (read off the curve) values are reported for all entries that follow.

{"binder": "PL3#7-43 mtIgG1 (antibody, V domains shown, Antibody was biotinylated (NHS-PEG4-biotin, sites not specified) for the Octet assay of Table 11., N297A mutant human IgG1; also called PL3#7-43 parental mtIgG1) VH: QVQLVQSGAEVKKPGSSVKVSCKASGGTFSSYPISWVRQAPGQGLEWMGRIIPILGIANYAQKFQGRVTITADKSTSTAYMELSSLRSEDTAVYYCARSRPGYAFGAFDIWGQGTLVTVSS VL: QSVVTQPPPVSGAPGQRVTISCTGSSSNVGAGYDVHWYQQLPGTAPKLLIYGNSNRSSGVPDRFSGSKSGTSASLAITGLQAEDEADYYCQTYDSSGSARVVFGGGTKLTVLG", "EC50 (read off the curve)": "~10 ng/mL"}

Now for a further binder.
**Q:** Need EC50 (read off the curve) of PL3#7-54 mtIgG1 (antibody, V domains shown, Antibody was biotinylated (NHS-PEG4-biotin, sites not specified) for the Octet assay of Table 11., N297A mutant human IgG1) VH: QVQLVQSGAEVKKPGSSVKVSCKASGGTFSSYPISWVRQAPGQGLEWMGRIIPILGIADYAQKFQGRVTITADKSTSTAYMELSSLRSEDTAVYYCARSRPGYAFGAFDIWGQGTLVTVSS VL: QSVVTQPPPVSGAPGQRVTISCTGSSSNIGQGYDVHWYQQLPGTAPKLLIYANSNRPSGVPDRFSGSKSGTSASLAITGLQAEDEADYYCQTYDSSLSARVVFGGGTKLTVLG , thanks.
**A:** ~8 ng/mL
